# System: B. xylophilus
# Method Description: microbe, parasite or virus in culture
# Test Settings: Bursaphelenchus xylophilus, 48 h, read-out: Corrected Mortality Rate ± SD (%) B. xylophilus
# Description: M. incognita (parasitic on tomato plants), A. besseyi (potato dextrose agar–Botrytis cinerea breeding), B. xylophilus (potato dextrose agar–Botrytis cinerea breeding), and C. elegans (nematode growth medium–inactivated Escherichia coli OP50 cultivation) were provided by the Fine Chemical Research and Development Center of Guizhou University (Guizhou, China). […] The nematicidal activity of the target compounds against four nematodes was determined using 48-well biochemical culture dishes. […]
Assay Readout: mortality at 50 µg/mL (%)
Your answer is read as %, so omit the unit and give the number.

Lab note: B. xylophilus assay, enter mortality at 50 µg/mL for O=C(Nc1ccc(Cl)cc1Cl)c1nc(-c2ccc(Cl)cc2)no1 here
0

Lab note: B. xylophilus assay, enter mortality at 50 µg/mL for O=C(NCCc1ccccn1)c1nc(-c2cccs2)no1 here
0

Lab note: B. xylophilus assay, enter mortality at 50 µg/mL for O=C(NCCc1ccccn1)c1nc(-c2ncc(C(F)(F)F)cc2Cl)no1 here
0

###

Exercise: state measured cytotoxicity at 48 h, 200 μg/mL for each of the compounds provided.
# Method Description: MTT cytotoxicity assay
# Format: cell-based
# Test Settings: human, L-02 normal liver cells, 200 μg/mL, L-02 cells
Your answer is read as %, so omit the unit and give the number.

State its cytotoxicity at 48 h, 200 μg/mL for this compound: O=C(NCCc1ccccn1)c1nc(-c2ccc(Cl)cc2)no1
31.5

State its cytotoxicity at 48 h, 200 μg/mL for this compound: O=C(NCCc1ncc(C(F)(F)F)cc1Cl)c1nc(-c2cccs2)no1
39.1

State its cytotoxicity at 48 h, 200 μg/mL for this compound: Cc1nc(C(F)(F)F)c(C(=O)Nc2c(Br)cc(OC(F)(F)F)cc2Br)s1 [Thifluzamide, thifluzamide, reference compound]
33.9

State its cytotoxicity at 48 h, 200 μg/mL for this compound: O=C(NCCc1ncc(C(F)(F)F)cc1Cl)c1ccccc1C(F)(F)F [Fluopyram, fluopyram, reference compound]
55.1

State its cytotoxicity at 48 h, 200 μg/mL for this compound: O=C(NCCc1ccccn1)c1nc(-c2ccccc2)no1
15.4

State its cytotoxicity at 48 h, 200 μg/mL for this compound: O=C(NCc1ccc(F)cc1F)c1nc(-c2ccccc2)no1
50.8

###

# System: A. besseyi
# Method Description: microbe, parasite or virus in culture
# Test Settings: Aphelenchoides besseyi, 48 h, read-out: Corrected Mortality Rate ± SD (%) A. besseyi
Assay Readout: mortality at 200 µg/mL (%)
Your answer is read as %, so omit the unit and give the number.

State its mortality at 200 µg/mL for this compound: O=C(Nc1ccc(Cl)cc1Cl)c1nc(-c2ccccc2)no1
11.7

State its mortality at 200 µg/mL for this compound: c1ccc(-c2noc(-c3cccs3)n2)cc1 [Tioxazafen, tioxazafen, reference compound]
61.4

State its mortality at 200 µg/mL for this compound: O=C(NCCc1ccccn1)c1nc(-c2ccc(Cl)cc2)no1
12.8

State its mortality at 200 µg/mL for this compound: CCOP(=O)(SC(C)CC)N1CCSC1=O (stereo not shown) [Fosthiazate, fosthiazate, reference compound]
38.4

###

# Test system: B. xylophilus
# Method Description: microbe, parasite or virus in culture
# Test Settings: Bursaphelenchus xylophilus, 48 h, read-out: Corrected Mortality Rate ± SD (%) B. xylophilus
Assay Readout: mortality at 50 µg/mL
The number alone won't do; follow it with the unit.

State its mortality at 50 µg/mL for this compound: CCOP(=O)(SC(C)CC)N1CCSC1=O (stereo not shown) [Fosthiazate, fosthiazate, reference compound]
38.8%

State its mortality at 50 µg/mL for this compound: O=C(NCc1ccc(F)cc1F)c1nc(-c2ccc(Br)nc2)no1 [Compound F19]
0%

State its mortality at 50 µg/mL for this compound: O=C(NCc1ccc(F)cc1F)c1nc(-c2ccccc2)no1 [Compound F3]
0%

State its mortality at 50 µg/mL for this compound: O=C(NCCc1ncc(C(F)(F)F)cc1Cl)c1nc(-c2ncc(C(F)(F)F)cc2Cl)no1 [Compound F22]
0%
